// reported IC50 for each item listed
# Target Or Test System: Recombinant human integrin ανβ8 (Homo sapiens, UniProt P06756+P26012)
# Sequence (P06756 31-992 limits assumed): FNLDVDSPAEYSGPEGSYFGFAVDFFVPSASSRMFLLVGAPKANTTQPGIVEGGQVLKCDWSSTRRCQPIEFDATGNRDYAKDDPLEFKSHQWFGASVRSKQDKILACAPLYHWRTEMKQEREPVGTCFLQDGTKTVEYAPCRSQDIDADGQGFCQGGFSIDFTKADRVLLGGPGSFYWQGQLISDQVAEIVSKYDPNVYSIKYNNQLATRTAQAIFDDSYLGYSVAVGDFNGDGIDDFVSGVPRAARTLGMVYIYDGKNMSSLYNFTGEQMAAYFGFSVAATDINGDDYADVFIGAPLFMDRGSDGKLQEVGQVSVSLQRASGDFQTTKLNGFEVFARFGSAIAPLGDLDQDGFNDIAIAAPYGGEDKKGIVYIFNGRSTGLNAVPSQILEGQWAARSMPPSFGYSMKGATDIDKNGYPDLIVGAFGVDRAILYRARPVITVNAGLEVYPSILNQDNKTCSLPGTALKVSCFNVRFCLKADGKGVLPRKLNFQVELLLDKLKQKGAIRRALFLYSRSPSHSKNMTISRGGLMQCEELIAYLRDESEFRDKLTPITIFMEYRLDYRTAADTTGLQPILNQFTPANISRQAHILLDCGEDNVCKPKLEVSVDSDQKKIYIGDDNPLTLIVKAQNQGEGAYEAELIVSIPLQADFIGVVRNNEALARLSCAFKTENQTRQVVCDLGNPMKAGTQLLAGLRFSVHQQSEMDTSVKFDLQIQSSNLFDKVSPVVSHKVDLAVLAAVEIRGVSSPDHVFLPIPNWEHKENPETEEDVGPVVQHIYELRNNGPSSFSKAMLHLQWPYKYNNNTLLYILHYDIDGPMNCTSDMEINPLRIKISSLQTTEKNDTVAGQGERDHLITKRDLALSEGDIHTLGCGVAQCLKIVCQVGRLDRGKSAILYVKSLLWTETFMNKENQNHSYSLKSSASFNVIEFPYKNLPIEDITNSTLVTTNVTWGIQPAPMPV
# Sequence (P26012 43-684 limits assumed): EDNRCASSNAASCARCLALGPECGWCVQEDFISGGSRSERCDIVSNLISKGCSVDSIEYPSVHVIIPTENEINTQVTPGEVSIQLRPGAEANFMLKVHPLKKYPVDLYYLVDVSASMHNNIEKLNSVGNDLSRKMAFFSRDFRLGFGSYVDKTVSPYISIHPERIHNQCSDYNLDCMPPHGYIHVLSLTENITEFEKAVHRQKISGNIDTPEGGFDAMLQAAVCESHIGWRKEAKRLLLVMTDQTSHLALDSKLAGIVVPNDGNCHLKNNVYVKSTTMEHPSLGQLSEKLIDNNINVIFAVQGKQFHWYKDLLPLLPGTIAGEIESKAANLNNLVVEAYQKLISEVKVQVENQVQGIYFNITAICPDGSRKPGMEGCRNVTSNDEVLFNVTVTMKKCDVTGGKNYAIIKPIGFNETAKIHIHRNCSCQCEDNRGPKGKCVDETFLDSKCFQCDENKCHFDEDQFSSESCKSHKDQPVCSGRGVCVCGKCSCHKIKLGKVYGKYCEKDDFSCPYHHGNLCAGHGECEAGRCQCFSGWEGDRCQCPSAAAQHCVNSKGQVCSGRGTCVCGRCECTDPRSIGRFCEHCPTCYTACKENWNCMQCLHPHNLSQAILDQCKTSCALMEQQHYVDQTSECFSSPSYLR
# Protocol Text: Solid Phase Receptor Assay (SPRA) for ανβ8 function
# Test Settings: plate-bound human LAP; read-out: αvβ8 SPRA IC50
Structures can show the parent of a compound that is named as a salt.
Readout Kind: IC50 (nM)

Cn1nc(CC(CC(=O)O)c2cc(C#N)cc(C(C)(C)C(F)(F)F)c2)cc1OCCc1ccc2c(n1)NCCC2 (stereo not shown) [Example 28, Trifluoroacetate] | 3.5
Cn1nc(CC(CC(=O)O)c2cc(C(C)(C)C)cc(C(F)(F)F)c2)cc1OCCc1ccc2c(n1)NCCC2 (stereo not shown) | 18
COc1ccc(C(C)C)cc1C(CC(=O)O)Cc1cc(OCCc2ccc3c(n2)NCCC3)n(C)n1 (stereo not shown) [Example 39, Trifluoroacetate] | 110
Cn1nc(CC(CC(=O)O)c2ccc3c(c2)OCCO3)cc1OCCc1ccc2c(n1)NCCC2 (stereo not shown) | 52

###

# pIC50 per entry
# Target Or Test System: Recombinant human integrin ανβ3 (Homo sapiens, UniProt P05106+P06756)
# Sequence (P05106 27-718 limits assumed, one chain of several): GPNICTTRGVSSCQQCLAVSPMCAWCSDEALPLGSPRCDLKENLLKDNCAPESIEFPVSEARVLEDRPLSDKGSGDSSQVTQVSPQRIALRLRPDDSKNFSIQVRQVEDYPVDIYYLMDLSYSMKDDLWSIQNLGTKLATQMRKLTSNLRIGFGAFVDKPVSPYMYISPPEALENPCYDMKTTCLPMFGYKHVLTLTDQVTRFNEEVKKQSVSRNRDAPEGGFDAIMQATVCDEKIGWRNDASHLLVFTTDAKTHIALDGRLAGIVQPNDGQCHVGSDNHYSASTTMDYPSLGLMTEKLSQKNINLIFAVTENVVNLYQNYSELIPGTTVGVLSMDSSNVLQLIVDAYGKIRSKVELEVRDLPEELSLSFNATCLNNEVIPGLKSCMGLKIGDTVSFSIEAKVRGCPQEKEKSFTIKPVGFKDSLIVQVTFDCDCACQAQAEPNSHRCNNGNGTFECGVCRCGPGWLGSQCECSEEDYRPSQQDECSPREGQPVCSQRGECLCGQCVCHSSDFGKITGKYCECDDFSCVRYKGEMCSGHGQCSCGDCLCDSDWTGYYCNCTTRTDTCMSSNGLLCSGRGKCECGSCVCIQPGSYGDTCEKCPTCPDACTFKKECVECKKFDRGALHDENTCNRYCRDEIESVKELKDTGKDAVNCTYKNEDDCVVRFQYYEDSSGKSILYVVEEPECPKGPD
# Protocol Text: Solid Phase Receptor Assay (SPRA) for ανβ3 function
# Test Settings: plate-bound human vitronectin; read-out: αvβ3 SPRA IC50
pIC50: −log10 of the molar value. Where a name gives a salt, the structure may show the parent alone.
Readout Kind: pIC50

CC(C)c1cc(Br)cc(C(CC(=O)O)Cc2cc(OCCc3ccc4c(n3)NCCC4)n(C)n2)c1 (centres unmarked) [Example 40, trifluoroacetate] | 8.14
Cn1nc(CC(CC(=O)O)c2cc(Br)cc(C(F)(F)F)c2)cc1OCCc1ccc2c(n1)NCCC2 (centres unmarked) [Example 10] | 8.44
Cn1nc(CC(CC(=O)O)c2cc(Br)cc(OC(F)(F)F)c2)cc1OCCc1ccc2c(n1)NCCC2 (centres unmarked) [Example 11] | 8.22
COc1ccc(C(N)=O)cc1C(CC(=O)O)Cc1cc(OCCc2ccc3c(n2)NCCC3)n(C)n1 (centres unmarked) [Example 47, trifluoroacetate] | 8.31
Cn1nc(CC(CC(=O)O)c2cc(C(C)(C)C)ccc2Cl)cc1OCCc1ccc2c(n1)NCCC2 (centres unmarked) [Example 43, Trifluoroacetate] | 7.03
Cn1nc(CC(CC(=O)O)c2cc(C(F)(F)F)cc(C3(C(F)F)CC3)c2)cc1OCCc1ccc2c(n1)NCCC2 (centres unmarked) [Example 23] | 8.12
Cn1nc(CC(CC(=O)O)c2cc(Br)cc(C(C)(C)C(F)(F)F)c2)cc1OCCc1ccc2c(n1)NCCC2 (centres unmarked) [Example 26] | 8.02
COCC1(c2cc(F)cc(C(CC(=O)O)Cc3cc(OCCc4ccc5c(n4)NCCC5)n(C)n3)c2)CCOCC1 (centres unmarked) [Example 30] | 8.09
Cn1nc(CC(CC(=O)O)c2cc(C#N)cc(C(C)(C)C(F)(F)F)c2)cc1OCCc1ccc2c(n1)NCCC2 (centres unmarked) [Example 28, Trifluoroacetate] | 8.00
COc1ccc(C(C)C)cc1C(CC(=O)O)Cc1cc(OCCc2ccc3c(n2)NCCC3)n(C)n1 (centres unmarked) [Example 39, Trifluoroacetate] | 6.54
COc1c(C(CC(=O)O)Cc2cc(OCCc3ccc4c(n3)NCCC4)n(C)n2)cccc1C(C)(C)C (centres unmarked) [Example 33] | 6.82
COc1ccc(C(C)(C)C)cc1C(CC(=O)O)Cc1cc(OCCc2ccc3c(n2)NCCC3)n(C)n1 (centres unmarked) [Example 32] | 6.42
Cn1nc(CC(CC(=O)O)c2cc(C(C)(C)C)cc(C(F)(F)F)c2)cc1OCCc1ccc2c(n1)NCCC2 (centres unmarked) [Example 37] | 8.14
Cn1nc(CC(CC(=O)O)c2cccc(C(C)(C)C)c2)cc1OCCc1ccc2c(n1)NCCC2 (centres unmarked) [Example 49, Trifluoroacetate] | 8.15

Origin of the recorded values: patent US11306084B2
